- TARGET_OF_ASSAY: Adenosine receptor A1 (Homo sapiens); further: in other assays of this panel Not Active means under 50% inhibition at 10 µM;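 further: radioligand binding assay at the adenosine A1 receptor, with DPCPX serving as the labelled ligand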
- Sequence (P30542 whole entry): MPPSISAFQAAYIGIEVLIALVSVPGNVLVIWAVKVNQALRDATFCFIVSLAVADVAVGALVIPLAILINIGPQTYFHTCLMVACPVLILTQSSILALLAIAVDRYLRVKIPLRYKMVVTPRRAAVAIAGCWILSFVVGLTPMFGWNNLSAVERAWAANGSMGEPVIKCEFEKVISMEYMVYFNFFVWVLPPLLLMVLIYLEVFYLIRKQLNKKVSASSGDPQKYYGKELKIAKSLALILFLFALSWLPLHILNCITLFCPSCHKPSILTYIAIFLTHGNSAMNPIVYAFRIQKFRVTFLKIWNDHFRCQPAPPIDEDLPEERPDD
- Format: cell membranes, CHO, Membrane
- CONDITION_LABEL: read-out: IC50
READOUT_NAME: IC50
Your reply should be a number followed by the unit it is expressed in.

COMPOUND | IC50
O=c1c(-c2ccc(O)cc2)coc2cc(O)cc(O)c12 | 19.9 µM

Now for another entry.
Param readout = IC50; param system = Adenosine receptor A1 (Homo sapiens); param query = C[S+]([O-])c1ccc(-c2nc(-c3ccncc3)c(-c3ccc(F)cc3)[nH]2)cc1 (configuration not stated) ; response: value 2.95 µM

* * *

- EXPERIMENT_DESCRIPTION: DRUGMATRIX: Phosphodiesterase PDE4 enzyme inhibition (substrate: [3H]cAMP + cAMP)
- CONDITION_LABEL: u-937; Not Active = under 50% inhibition at 10 µM
READOUT_NAME: IC50

Here is how some compounds turned out for IC50.
COMPOUND | IC50
CCN(CC)CCNC(=O)c1ccc(N)cc1 [PROCAINAMIDE] | Not Active
CN(C)C(=O)Oc1cccc([N+](C)(C)C)c1.[Br-] [NEOSTIGMINE BROMIDE] | Not Active
O=C(O)c1ccccc1O [SALICYLIC ACID] | Not Active
Cn1c(=O)c2c(ncn2C)n(C)c1=O [CAFFEINE] | Not Active
NS(=O)(=O)c1cc(C2(O)NC(=O)c3ccccc32)ccc1Cl (stereo unspecified) [CHLORTHALIDONE] | Not Active

Consider the compound CN(C)CCC=C1c2ccccc2CCc2ccccc21 [AMITRIPTYLINE] and give its measured IC50. Not Active

Sample CC(C)c1c(C(=O)Nc2ccccc2)c(-c2ccccc2)c(-c2ccc(F)cc2)n1CC[C@@H](O)C[C@@H](O)CC(=O)O [ATORVASTATIN] — what was its IC50? Not Active

I am curious: what IC50 value has been reported for C[N+](C)(C)CCOC(=O)CCC(=O)OCC[N+](C)(C)C.[Cl-].[Cl-] [SUCCINYLCHOLINE CHLORIDE] ? Not Active

I'd like to know its IC50. The compound in question is NNCCc1ccccc1 [PHENELZINE] Not Active

Reported IC50 for CC(=O)OCC(COC(C)=O)OC(C)=O [TRIACETIN] : what is it? Not Active

Please report the recorded IC50 for COc1ccccc1N . Not Active

* * *

- TARGET_OF_ASSAY: 3-hydroxy-3-methylglutaryl-coenzyme A reductase (Homo sapiens);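 further: enzyme inhibition assay of HMG-CoA reductase using radiolabeled [14C]HMG-CoA as substrate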; further: in other assays of this panel Not Active means under 50% inhibition at 10 µM
- Sequence (P04035 whole entry): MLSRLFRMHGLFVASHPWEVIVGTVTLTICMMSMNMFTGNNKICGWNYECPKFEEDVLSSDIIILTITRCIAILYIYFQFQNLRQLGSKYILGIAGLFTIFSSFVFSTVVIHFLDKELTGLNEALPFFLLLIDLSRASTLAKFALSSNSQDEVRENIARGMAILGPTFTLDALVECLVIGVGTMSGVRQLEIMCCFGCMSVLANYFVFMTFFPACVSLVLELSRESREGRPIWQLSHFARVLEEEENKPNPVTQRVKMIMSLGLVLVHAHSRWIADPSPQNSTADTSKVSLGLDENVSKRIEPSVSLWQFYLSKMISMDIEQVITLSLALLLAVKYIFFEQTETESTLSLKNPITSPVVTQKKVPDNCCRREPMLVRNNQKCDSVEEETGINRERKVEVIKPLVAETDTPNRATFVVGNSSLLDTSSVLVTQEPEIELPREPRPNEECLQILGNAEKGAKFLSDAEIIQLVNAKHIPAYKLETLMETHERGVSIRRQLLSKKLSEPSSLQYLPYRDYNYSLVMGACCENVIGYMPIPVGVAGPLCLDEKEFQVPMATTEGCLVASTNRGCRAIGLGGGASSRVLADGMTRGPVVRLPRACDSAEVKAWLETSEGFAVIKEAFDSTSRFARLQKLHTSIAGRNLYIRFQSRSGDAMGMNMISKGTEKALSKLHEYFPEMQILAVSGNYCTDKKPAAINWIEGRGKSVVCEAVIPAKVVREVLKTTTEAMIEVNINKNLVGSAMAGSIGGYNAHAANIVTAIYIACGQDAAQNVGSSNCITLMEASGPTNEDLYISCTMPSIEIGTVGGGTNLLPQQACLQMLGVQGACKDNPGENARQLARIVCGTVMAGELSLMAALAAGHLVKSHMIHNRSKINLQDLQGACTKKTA
- Parameters: species or system Escherichia coli
READOUT_NAME: IC50

The cases that follow already have their IC50 on record.
COMPOUND | IC50
N[C@@H](Cn1ccc(=O)c(O)c1)C(=O)O [L-MIMOSINE] | Not Active
Cc1cc(O)cc(C)c1Cl [CHLOROXYLENOL] | Not Active
Cc1c(O)cccc1C(=O)N[C@@H](CSc1ccccc1)[C@H](O)CN1C[C@H]2CCCC[C@H]2C[C@H]1C(=O)NC(C)(C)C | Not Active
CC1CCC(NC(=O)N(CCCl)N=O)CC1 (stereo not given) [SEMUSTINE] | Not Active

// moving on: another record for IC50
Item O=C(c1ccccc1F)N1CCC(Cc2ccccc2)CC1 has what recorded IC50? Not Active
